# experimental_system: cloned human or rodent CNS receptors, channels, and transporters (PDSP panel) (Homo sapiens, UniProt P25100)
# Construct: expressed in transfected cells
# Sequence (P25100 whole entry): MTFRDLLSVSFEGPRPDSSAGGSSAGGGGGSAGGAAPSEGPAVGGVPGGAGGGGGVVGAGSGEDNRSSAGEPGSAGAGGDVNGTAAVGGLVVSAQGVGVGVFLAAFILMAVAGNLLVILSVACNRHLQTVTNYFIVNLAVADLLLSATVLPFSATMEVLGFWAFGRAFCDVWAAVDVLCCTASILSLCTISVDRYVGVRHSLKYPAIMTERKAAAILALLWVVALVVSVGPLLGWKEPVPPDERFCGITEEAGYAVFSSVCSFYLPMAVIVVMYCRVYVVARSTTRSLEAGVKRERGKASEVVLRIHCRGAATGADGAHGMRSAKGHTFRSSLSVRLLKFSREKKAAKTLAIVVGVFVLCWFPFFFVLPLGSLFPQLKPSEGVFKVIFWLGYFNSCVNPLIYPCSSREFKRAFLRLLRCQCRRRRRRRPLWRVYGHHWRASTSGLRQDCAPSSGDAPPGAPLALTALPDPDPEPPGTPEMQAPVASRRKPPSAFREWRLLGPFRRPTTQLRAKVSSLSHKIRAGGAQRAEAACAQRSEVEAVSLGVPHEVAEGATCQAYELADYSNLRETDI
# experimental_protocol: PDSP GPCR panel primary binding assays at 10 μM
# reported_conditions: Alpha1D; primary assay, replicate 2
readout_name: Inhibition 2 (%)

>>> observed_result("O=C(NC1CC1)C(=O)C(Cc1ccccc1)NC(=O)[C@H]1CCC(=O)N1Cc1ccccc1 (stereo partly shown) [UNC10302676A, ABT-957 (Alicapistat)]")
-9.7
>>> observed_result("CCC(=O)N1CCC(NC(=O)Nc2ccc(OC(F)(F)F)cc2)CC1 [UNC10302681A, TPPU]")
-6
>>> observed_result("CC(=O)N1CCC(NC(=O)NC23CC4CC(CC(C4)C2)C3)CC1 [UNC10302683A, AR9281]")
-12.11
>>> observed_result("CNc1nc(C)nc(N[C@H]2CCC[C@@H](C(=O)NCc3ccc(C#N)cc3C(F)(F)F)C2)n1 [UNC10302679A, GSK2256294A]")
-21.92

----------
# Tested on: cloned human or rodent CNS receptors, channels, and transporters (PDSP panel)
# experimental_protocol: PDSP GPCR panel primary binding assays at 10 μM
# reported_conditions: Receptor Sigma 2; primary assay, 10 μM
Each record here notes measured Inhibition 3.
readout_name: Inhibition 3 (%)

>>> observed_result("c1cn2cc(-c3ccc4cn[nH]c4c3)nc(Nc3ccc(N4CCOCC4)cc3)c2n1 [UNC10302678A, Entospletinib (GS-9973)]")
-3.28
>>> observed_result("Cl.NC(=O)c1cnc(N[C@@H]2CCCC[C@@H]2N)nc1Nc1cccc(-n2nccn2)c1 [UNC10302682A, P505-15 (PRT06207 HCl)]")
67.96
>>> observed_result("CCCCNc1ncc2c(-c3ccc(CN4CCN(C)CC4)cc3)cn([C@H]3CC[C@H](O)CC3)c2n1 [UNC2025C, UNC2025]")
97.25
>>> observed_result("O=c1oc2ccccc2cc1-c1cn2cc(Cc3ccc(F)cc3)sc2n1 [UNC10302680A, iMDK]")
40.23

----------
Collected Inhibition 4 values appear next to each entry.
# experimental_system: cloned human or rodent CNS receptors, channels, and transporters (PDSP panel) (Homo sapiens, UniProt P28335)
# Construct: expressed in transfected cells
# Sequence (P28335 33-458): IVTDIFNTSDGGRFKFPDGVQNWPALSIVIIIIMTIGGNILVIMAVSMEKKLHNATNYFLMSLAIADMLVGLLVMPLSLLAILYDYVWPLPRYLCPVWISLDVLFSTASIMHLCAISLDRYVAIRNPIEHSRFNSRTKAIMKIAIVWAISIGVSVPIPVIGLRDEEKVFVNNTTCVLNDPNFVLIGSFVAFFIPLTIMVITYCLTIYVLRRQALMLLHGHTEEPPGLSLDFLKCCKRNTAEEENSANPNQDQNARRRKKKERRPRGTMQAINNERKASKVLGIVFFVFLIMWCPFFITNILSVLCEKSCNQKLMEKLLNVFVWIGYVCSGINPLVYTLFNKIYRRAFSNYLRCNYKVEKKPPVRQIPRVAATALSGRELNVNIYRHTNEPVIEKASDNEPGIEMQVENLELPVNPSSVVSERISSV
# experimental_protocol: PDSP GPCR panel primary binding assays at 10 μM
# reported_conditions: 5-HT2C; primary assay, replicate 4
readout_name: Inhibition 4 (%)

>>> observed_result("CC(=O)N1CCC(NC(=O)NC23CC4CC(CC(C4)C2)C3)CC1 [UNC10302683A, AR9281]")
-37.79
>>> observed_result("O=C(NC1CC1)C(=O)C(Cc1ccccc1)NC(=O)[C@H]1CCC(=O)N1Cc1ccccc1 (stereo partly shown) [UNC10302676A, ABT-957 (Alicapistat)]")
-9.33
>>> observed_result("CNc1nc(C)nc(N[C@H]2CCC[C@@H](C(=O)NCc3ccc(C#N)cc3C(F)(F)F)C2)n1 [UNC10302679A, GSK2256294A]")
-26.01
>>> observed_result("CCC(=O)N1CCC(NC(=O)Nc2ccc(OC(F)(F)F)cc2)CC1 [UNC10302681A, TPPU]")
-23.07

----------
# experimental_system: cloned human or rodent CNS receptors, channels, and transporters (PDSP panel) (Homo sapiens)
# Construct: expressed in transfected cells
# experimental_protocol: PDSP GPCR panel primary binding assays at 10 μM
# reported_conditions: MOR; primary assay, replicate 1
readout_name: Inhibition 1

>>> observed_result("CCC(=O)N1CCC(NC(=O)Nc2ccc(OC(F)(F)F)cc2)CC1 [UNC10302681A, TPPU]")
"7.83%"
>>> observed_result("CNc1nc(C)nc(N[C@H]2CCC[C@@H](C(=O)NCc3ccc(C#N)cc3C(F)(F)F)C2)n1 [UNC10302679A, GSK2256294A]")
"-0.8%"
>>> observed_result("CC(=O)N1CCC(NC(=O)NC23CC4CC(CC(C4)C2)C3)CC1 [UNC10302683A, AR9281]")
"2.55%"
>>> observed_result("O=C(NC1CC1)C(=O)C(Cc1ccccc1)NC(=O)[C@H]1CCC(=O)N1Cc1ccccc1 (stereo partly shown) [UNC10302676A, ABT-957 (Alicapistat)]")
"10.32%"

----------
# experimental_system: cloned human or rodent CNS receptors, channels, and transporters (PDSP panel) (Homo sapiens)
# Construct: expressed in transfected cells
# experimental_protocol: PDSP GPCR panel primary binding assays at 10 μM
# reported_conditions: Receptor MOR; primary assay, 10 μM; mean of Inhibition 1-4
Listed here are compounds together with their documented Mean %.
readout_name: Mean % (%)

>>> observed_result("O=c1oc2ccccc2cc1-c1cn2cc(Cc3ccc(F)cc3)sc2n1 [UNC10302680A, iMDK]")
5.88
>>> observed_result("c1cn2cc(-c3ccc4cn[nH]c4c3)nc(Nc3ccc(N4CCOCC4)cc3)c2n1 [UNC10302678A, Entospletinib (GS-9973)]")
3.42
>>> observed_result("CCCCNc1ncc2c(-c3ccc(CN4CCN(C)CC4)cc3)cn([C@H]3CC[C@H](O)CC3)c2n1 [UNC2025C, UNC2025]")
7.92
>>> observed_result("Cl.NC(=O)c1cnc(N[C@@H]2CCCC[C@@H]2N)nc1Nc1cccc(-n2nccn2)c1 [UNC10302682A, P505-15 (PRT06207 HCl)]")
21.29

----------
Recorded Inhibition 3 for the following molecules
# experimental_system: cloned human or rodent CNS receptors, channels, and transporters (PDSP panel) (Homo sapiens, UniProt P21918)
# Construct: expressed in transfected cells
# Sequence (P21918 whole entry): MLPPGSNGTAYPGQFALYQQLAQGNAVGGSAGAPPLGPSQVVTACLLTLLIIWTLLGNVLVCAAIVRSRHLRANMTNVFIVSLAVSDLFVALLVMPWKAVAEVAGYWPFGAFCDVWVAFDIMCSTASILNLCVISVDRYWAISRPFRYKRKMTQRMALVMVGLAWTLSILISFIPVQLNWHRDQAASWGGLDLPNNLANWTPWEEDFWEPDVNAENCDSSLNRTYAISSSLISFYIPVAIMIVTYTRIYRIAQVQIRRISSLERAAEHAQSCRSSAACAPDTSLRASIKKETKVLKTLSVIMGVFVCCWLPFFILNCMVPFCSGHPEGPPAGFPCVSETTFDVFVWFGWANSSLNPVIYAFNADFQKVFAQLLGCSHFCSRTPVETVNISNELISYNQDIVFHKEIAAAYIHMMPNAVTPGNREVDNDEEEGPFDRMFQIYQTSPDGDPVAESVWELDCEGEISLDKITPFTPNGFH
# experimental_protocol: PDSP GPCR panel primary binding assays at 10 μM
# reported_conditions: D5; primary assay, replicate 3
readout_name: Inhibition 3 (%)

>>> observed_result("O=C(NC1CC1)C(=O)C(Cc1ccccc1)NC(=O)[C@H]1CCC(=O)N1Cc1ccccc1 (stereo partly shown) [UNC10302676A, ABT-957 (Alicapistat)]")
-18.95
>>> observed_result("CCC(=O)N1CCC(NC(=O)Nc2ccc(OC(F)(F)F)cc2)CC1 [UNC10302681A, TPPU]")
-4.28
>>> observed_result("CNc1nc(C)nc(N[C@H]2CCC[C@@H](C(=O)NCc3ccc(C#N)cc3C(F)(F)F)C2)n1 [UNC10302679A, GSK2256294A]")
-21.39
>>> observed_result("CC(=O)N1CCC(NC(=O)NC23CC4CC(CC(C4)C2)C3)CC1 [UNC10302683A, AR9281]")
-18.03

----------
Consider the following compounds and their measured Inhibition 4 readings.
# experimental_system: cloned human or rodent CNS receptors, channels, and transporters (PDSP panel) (Homo sapiens)
# Construct: expressed in transfected cells
# experimental_protocol: PDSP GPCR panel primary binding assays at 10 μM
# reported_conditions: 5-HT7A; primary assay, replicate 4
readout_name: Inhibition 4 (%)

>>> observed_result("CCC(=O)N1CCC(NC(=O)Nc2ccc(OC(F)(F)F)cc2)CC1 [UNC10302681A, TPPU]")
40.05
>>> observed_result("CNc1nc(C)nc(N[C@H]2CCC[C@@H](C(=O)NCc3ccc(C#N)cc3C(F)(F)F)C2)n1 [UNC10302679A, GSK2256294A]")
59.27
>>> observed_result("O=C(NC1CC1)C(=O)C(Cc1ccccc1)NC(=O)[C@H]1CCC(=O)N1Cc1ccccc1 (stereo partly shown) [UNC10302676A, ABT-957 (Alicapistat)]")
21.46
>>> observed_result("CC(=O)N1CCC(NC(=O)NC23CC4CC(CC(C4)C2)C3)CC1 [UNC10302683A, AR9281]")
33.7

----------
Entries annotated with measured Inhibition 4
# experimental_system: cloned human or rodent CNS receptors, channels, and transporters (PDSP panel) (Homo sapiens)
# Construct: expressed in transfected cells
# experimental_protocol: PDSP GPCR panel primary binding assays at 10 μM
# reported_conditions: 5-HT1D; primary assay, replicate 4
readout_name: Inhibition 4 (%)

>>> observed_result("CCC(=O)N1CCC(NC(=O)Nc2ccc(OC(F)(F)F)cc2)CC1 [UNC10302681A, TPPU]")
-3.85
>>> observed_result("CC(=O)N1CCC(NC(=O)NC23CC4CC(CC(C4)C2)C3)CC1 [UNC10302683A, AR9281]")
0.31
>>> observed_result("CNc1nc(C)nc(N[C@H]2CCC[C@@H](C(=O)NCc3ccc(C#N)cc3C(F)(F)F)C2)n1 [UNC10302679A, GSK2256294A]")
-4.69
>>> observed_result("O=C(NC1CC1)C(=O)C(Cc1ccccc1)NC(=O)[C@H]1CCC(=O)N1Cc1ccccc1 (stereo partly shown) [UNC10302676A, ABT-957 (Alicapistat)]")
9.89
